Assay: Solubility in different solvents
Type: physicochemical
Conditions: HPβCD, 40% in water, aqueous with cosolvent or surfactant or cyclodextrin; read-out: Solubility
measured metric: solubility (µg/mL)
Answer in µg/mL, number only, no unit symbol.

Ask | Query: solubility; subject: CC#C[C@]1(O)CC[C@H]2[C@@H]3CCC4=CC(=O)CCC4=C3[C@@H](c3ccc4c(c3)OCO4)C[C@@]21C
Reply | 800

---

Experiment: Solubility in different solvents
Assay type: physicochemical
Conditions: acetonitrile, organic solvent or mixture; read-out: Solubility
measured metric: solubility

Ask | Any idea what solubility was measured for CC#C[C@]1(O)CC[C@H]2[C@@H]3CCC4=CC(=O)CCC4=C3[C@@H](c3ccc4c(c3)OCO4)C[C@@]21C [ORG 34517] ?
Reply | > 10000 µg/mL

---

Assay: Solubility in different solvents
Format: physicochemical
Conditions: TPGS:PEG 400:propyleneglycol (12:17:55), organic solvent or mixture; read-out: Solubility
Protocol: The solubility of (11β,17β)-11-(1,3-benzodioxol-5-yl)-17-hydroxy-17-(1-propynyl)estra-4,9-dien-3-one is determined in different solvents. These solutions can be of use for clinical treatment with the advantages as mentioned above.
measured metric: solubility

Ask | Could you share which solubility value was measured for CC#C[C@]1(O)CC[C@H]2[C@@H]3CCC4=CC(=O)CCC4=C3[C@@H](c3ccc4c(c3)OCO4)C[C@@]21C ?
Reply | 700 µg/mL

---

Experiment: Solubility in different solvents
Type: physicochemical
Conditions: Glucofurol:water (50:50), aqueous with cosolvent or surfactant or cyclodextrin; read-out: Solubility
measured metric: solubility (µg/mL)
Kindly answer with a numeric value in µg/mL, unit omitted.

Ask | State the recorded solubility for this entry: CC#C[C@]1(O)CC[C@H]2[C@@H]3CCC4=CC(=O)CCC4=C3[C@@H](c3ccc4c(c3)OCO4)C[C@@]21C
Reply | 700

---

Assay: Solubility in different solvents
Format: physicochemical
Settings: PEG 1500, organic solvent or mixture; read-out: Solubility
measured metric: solubility (mg/mL)
State just the number; it will be interpreted in mg/mL.

Ask | Recorded solubility for CC#C[C@]1(O)CC[C@H]2[C@@H]3CCC4=CC(=O)CCC4=C3[C@@H](c3ccc4c(c3)OCO4)C[C@@]21C [ORG 34517] , please?
Reply | 37

---

Assay: Solubility in different solvents
Format: physicochemical
Conditions: PEG 400, organic solvent or mixture; read-out: Solubility
measured metric: solubility (mg/mL)
Note: unit mg/mL is implicit; provide only the numeric part.

Ask | Quick check: solubility of CC#C[C@]1(O)CC[C@H]2[C@@H]3CCC4=CC(=O)CCC4=C3[C@@H](c3ccc4c(c3)OCO4)C[C@@]21C ?
Reply | 34.4

---

Assay: Solubility in different solvents
Format: physicochemical
Conditions: water with sodium lauryl sulphate 1.0% w/v, aqueous with cosolvent or surfactant or cyclodextrin; Water-Sodium lauryl sulphate (1.0% w/v); read-out: Solubility
measured metric: solubility (µg/mL)
Your answer is read as µg/mL, so omit the unit and give the number.

Ask | Sample CC#C[C@]1(O)CC[C@H]2[C@@H]3CCC4=CC(=O)CCC4=C3[C@@H](c3ccc4c(c3)OCO4)C[C@@]21C [ORG 34517] — what was its solubility?
Reply | 377

---

Assay: Solubility in different solvents
Format: physicochemical
Conditions: ethanol:PEG 400:propylene glycol:water (10:40:40:10), aqueous with cosolvent or surfactant or cyclodextrin; read-out: Solubility
measured metric: solubility (mg/mL)
Express your answer in mg/mL, writing the number without its unit.

Ask | Item under review: CC#C[C@]1(O)CC[C@H]2[C@@H]3CCC4=CC(=O)CCC4=C3[C@@H](c3ccc4c(c3)OCO4)C[C@@]21C . Reported solubility?
Reply | 14
